Data origin, for the record: patent US8404673B2

measurement.target: mGlyT-1b (Mus musculus, UniProt P28571)
Construct: host or cells: Flp-in-CHO
Sequence (P28571 1-651 isoform P28571-2): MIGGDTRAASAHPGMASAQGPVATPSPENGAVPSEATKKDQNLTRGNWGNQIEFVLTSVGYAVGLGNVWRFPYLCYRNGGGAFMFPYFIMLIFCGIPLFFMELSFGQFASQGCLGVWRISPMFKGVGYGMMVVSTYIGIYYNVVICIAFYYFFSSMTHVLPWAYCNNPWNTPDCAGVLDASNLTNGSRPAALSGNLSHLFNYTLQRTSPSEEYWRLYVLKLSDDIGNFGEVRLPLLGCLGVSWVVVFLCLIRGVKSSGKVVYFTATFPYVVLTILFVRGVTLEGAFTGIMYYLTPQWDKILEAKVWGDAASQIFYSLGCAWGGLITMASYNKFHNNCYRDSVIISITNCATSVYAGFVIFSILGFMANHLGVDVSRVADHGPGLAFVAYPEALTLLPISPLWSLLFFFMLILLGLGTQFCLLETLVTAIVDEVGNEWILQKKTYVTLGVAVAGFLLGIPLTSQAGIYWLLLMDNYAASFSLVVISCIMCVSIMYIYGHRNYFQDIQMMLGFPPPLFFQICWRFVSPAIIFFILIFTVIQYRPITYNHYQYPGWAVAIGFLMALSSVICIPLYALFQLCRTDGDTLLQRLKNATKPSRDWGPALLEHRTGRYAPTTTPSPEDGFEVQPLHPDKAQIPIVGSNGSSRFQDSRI
experiment.summary: Glycine Uptake Inhibition Assay (mGlyT-1b)
Type: cell-based
condition.description: read-out: IC50 data
Record form. Attribute: IC50. Fill in for each entry.
Only the number, expressed in nM, is required.

Form: Entry = COc1cc(C(F)(F)F)cc(SC)c1C(=O)N[C@@H]1CCC[C@@H]1NC1CCC1 (single isomer, unassigned) [Example 62] | System = mGlyT-1b (Mus musculus, UniProt P28571) | IC50 = ____
31.6

Form: Entry = O=C(NC1CCCC1NC1CCCC1)c1ccc(C(F)(F)F)cc1C1CC1 (single isomer, unassigned; (-)) [Example 110] | System = mGlyT-1b (Mus musculus, UniProt P28571) | IC50 = ____
54.3

Form: Entry = CCc1cc(C(F)(F)F)ccc1C(=O)N[C@H]1CCC[C@H]1NC1CCCC1 (single isomer, unassigned) [Example 92] | System = mGlyT-1b (Mus musculus, UniProt P28571) | IC50 = ____
95.4

Form: Entry = O=C(N[C@H]1CCC[C@H]1NC1CCCC1)c1ccc(C(F)(F)F)cc1C1CC1 (racemic) | System = mGlyT-1b (Mus musculus, UniProt P28571) | IC50 = ____
35.1

Form: Entry = COc1cc(C(F)(F)F)cc(SC)c1C(=O)N[C@H]1CCC[C@H]1NC1CCCC1 (single isomer, unassigned) | System = mGlyT-1b (Mus musculus, UniProt P28571) | IC50 = ____
19.4

Form: Entry = COc1cc(C(F)(F)F)cc(SC)c1C(=O)N[C@@H]1CCC[C@@H]1NC1CCCC1 (racemic) | System = mGlyT-1b (Mus musculus, UniProt P28571) | IC50 = ____
56.4

Form: Entry = O=C(NC1CCCC1NC1CCCC1)c1ccc(C(F)(F)F)cc1C1CC1 (single isomer, unassigned; (+)) [Example 109] | System = mGlyT-1b (Mus musculus, UniProt P28571) | IC50 = ____
25.3

Form: Entry = COc1cc(C(F)(F)F)cc(SC)c1C(=O)N[C@@H]1CCC[C@@H]1NC1CCC1 (racemic) [Example 61] | System = mGlyT-1b (Mus musculus, UniProt P28571) | IC50 = ____
65.9

Form: Entry = CCc1cc(C(F)(F)F)ccc1C(=O)N[C@H]1CCC[C@H]1NC1CCCC1 (racemic) [Example 89] | System = mGlyT-1b (Mus musculus, UniProt P28571) | IC50 = ____
79.4
